System: Plasmodium falciparum NF54-HGL (transmission to Anopheles stephensi)
TEST PROTOCOL: percentage of barcode signal found in uninfected mosquitoes (transmission-blocking activity); higher = stronger blocking of transmission to mosquito, active = 80 or more
RUN CONDITIONS: 20 µM; gametocyte preincubation time 24 h; readout time post-feed 8 days
QUANTITY: percentage of barcode signal found in uninfected mosquitoes (%)

| COMPOUND | SYSTEM NAME | UNIT TAG | MEASURED VALUE |
| --- | --- | --- | --- |
| FC(F)(F)c1cccc(-c2nc3c(NCc4ccncc4)nccc3[nH]2)c1 | Plasmodium falciparum NF54-HGL (transmission to Anopheles stephensi) | % | 2.48 |
| O=C(NCCc1ccn(-c2ccccc2)n1)C1CCCCC1 | Plasmodium falciparum NF54-HGL (transmission to Anopheles stephensi) | % | 3.62 |
| Cc1ccc2[nH]c(C3CCCNC3)c(-c3ccncc3)c2c1 (configuration not stated) | Plasmodium falciparum NF54-HGL (transmission to Anopheles stephensi) | % | 79.4 |
| NCCC(O)C(=O)N[C@@H]1C[C@H](N)[C@@H](OC2O[C@H](CN)[C@@H](O)[C@H](O)[C@H]2O)[C@H](O)C1OC1O[C@H](CO)[C@@H](O)[C@H](N)[C@H]1O (some centres not stated) | Plasmodium falciparum NF54-HGL (transmission to Anopheles stephensi) | % | 37.6 |
| COc1cccc(-c2cc3c(Nc4cccnc4)nccc3[nH]2)c1 | Plasmodium falciparum NF54-HGL (transmission to Anopheles stephensi) | % | 29 |
| O=C(Nc1c(O)cccc1-c1nc2c(C(=O)O)cccc2o1)c1cc(-c2ccccc2)on1 | Plasmodium falciparum NF54-HGL (transmission to Anopheles stephensi) | % | 20.8 |
| c1cncc(NCc2ccc(-c3cc4ccncc4cc3OC3CCNCC3)s2)c1 | Plasmodium falciparum NF54-HGL (transmission to Anopheles stephensi) | % | 99.4 |
| Cc1nc(-c2ccccn2)nc(N(C)CCc2ccccc2)c1Cl | Plasmodium falciparum NF54-HGL (transmission to Anopheles stephensi) | % | 92 |
| Cc1cnc(N2CCN[C@@H](Cc3ccccc3)C2)nc1Oc1ccc(-n2ccnc2)cc1 | Plasmodium falciparum NF54-HGL (transmission to Anopheles stephensi) | % | 87 |
| c1ccc(-c2nc(NC3CCCCC3)cc(C3CC3)n2)nc1 | Plasmodium falciparum NF54-HGL (transmission to Anopheles stephensi) | % | 99.2 |
| CC1(C)Cc2c(c(N3CCOCC3)nc3snc(Br)c23)CO1 | Plasmodium falciparum NF54-HGL (transmission to Anopheles stephensi) | % | 97 |
| Cc1cc(O)nc(-n2nc(C)cc2C)n1 | Plasmodium falciparum NF54-HGL (transmission to Anopheles stephensi) | % | 70.1 |
| COc1cc(OC)cc(C(=O)NCC2Cc3cc(Cl)cc(-c4ccncc4)c3O2)c1 (configuration not stated) | Plasmodium falciparum NF54-HGL (transmission to Anopheles stephensi) | % | 1.01 |
| Cc1ccc2nc(C)c(-c3ccn(Cc4ccccc4)n3)n2c1 | Plasmodium falciparum NF54-HGL (transmission to Anopheles stephensi) | % | 71.6 |
| CC(C)(C)c1cnc(NC(=O)c2ccccc2O)s1 | Plasmodium falciparum NF54-HGL (transmission to Anopheles stephensi) | % | 21.3 |
| COc1cc(C2=NCCN2)cc2cc(-c3ccc(C4=NCCN4)cc3)oc12 | Plasmodium falciparum NF54-HGL (transmission to Anopheles stephensi) | % | 95.1 |
| CCNC(=O)C(C)Nc1nc(-c2cccnc2)nc2sc(C)c(C)c12 (configuration not stated) | Plasmodium falciparum NF54-HGL (transmission to Anopheles stephensi) | % | 11.5 |
| CC(C)NCC(=O)Nc1cccc(C(=O)Nc2cccc(C(F)(F)F)c2)c1 | Plasmodium falciparum NF54-HGL (transmission to Anopheles stephensi) | % | 54 |
| NC(=O)c1cc(Br)ccc1OCCOc1ccccc1 | Plasmodium falciparum NF54-HGL (transmission to Anopheles stephensi) | % | 0.0693 |
| COc1cccc(OC)c1C(=O)Nc1ccc(Cl)c(-c2nc3ccccc3s2)c1 | Plasmodium falciparum NF54-HGL (transmission to Anopheles stephensi) | % | 13.2 |
| CCn1ncc2c(NC3CCOCC3)c(CNC(=O)c3ccnn3C)c(C)nc21 | Plasmodium falciparum NF54-HGL (transmission to Anopheles stephensi) | % | 91.2 |
| COc1ccc(-c2nn(C(C)C)c3ncnc(N)c23)cc1OC | Plasmodium falciparum NF54-HGL (transmission to Anopheles stephensi) | % | 95.5 |

---

Test system: Plasmodium falciparum NF54-HGL (transmission to Anopheles stephensi)
TEST PROTOCOL: percentage of barcode signal found in uninfected mosquitoes (transmission-blocking activity); higher = stronger blocking of transmission to mosquito, active = 80 or more
RUN CONDITIONS: 10 µM; gametocyte preincubation time 24 h; readout time post-feed 8 days
QUANTITY: percentage of barcode signal found in uninfected mosquitoes

| STRUCTURE STRING | SYSTEM NAME | MEASURED VALUE |
| --- | --- | --- |
| c1ccc(Oc2ccc(-c3cc(C4CCOCC4)[nH]n3)cc2)cc1 | Plasmodium falciparum NF54-HGL (transmission to Anopheles stephensi) | 10.6% (inactive) |
| CNc1nnc(Sc2cnn(-c3ccccc3)c(=O)c2Cl)s1 | Plasmodium falciparum NF54-HGL (transmission to Anopheles stephensi) | 76.3% (inactive) |
| COc1ccccc1OCCCCn1c(C2CC2)nc2ccccc21 | Plasmodium falciparum NF54-HGL (transmission to Anopheles stephensi) | 48.5% (inactive) |
| N=C(N)c1ccc(-c2cc(-c3ccccc3)on2)cc1 | Plasmodium falciparum NF54-HGL (transmission to Anopheles stephensi) | 33.2% (inactive) |
| COc1cncc(-c2cncc(N3CCN(c4ccncc4)CC3)n2)c1 | Plasmodium falciparum NF54-HGL (transmission to Anopheles stephensi) | 63.9% (inactive) |
| Cc1cccc(NC(=O)c2cc(S(=O)(=O)N(C)c3ccc(F)cc3)ccc2Cl)n1 | Plasmodium falciparum NF54-HGL (transmission to Anopheles stephensi) | 46.1% (inactive) |

---

Tested on: Plasmodium falciparum NF54-HGL (transmission to Anopheles stephensi)
TEST PROTOCOL: percentage of barcode signal found in uninfected mosquitoes (transmission-blocking activity); higher = stronger blocking of transmission to mosquito, active = 80 or more
RUN CONDITIONS: 10 µM; gametocyte preincubation time 24 h; readout time post-feed 8 days
Short version: percentage of barcode signal found in uninfected mosquitoes at least 30% is met, less is not met.

| STRUCTURE STRING | DISCRETE LABEL |
| --- | --- |
| COc1cccc(OCC(=O)c2ccc(Br)cc2)c1 | not met |
| Cc1ccc(C(=O)Nc2ccc(S(=O)(=O)O)c3cc(S(=O)(=O)O)cc(S(=O)(=O)O)c23)cc1NC(=O)c1cccc(NC(=O)Nc2cccc(C(=O)Nc3cc(C(=O)Nc4ccc(S(=O)(=O)O)c5cc(S(=O)(=O)O)cc(S(=O)(=O)O)c45)ccc3C)c2)c1 | met |
| O=C(c1[nH]nc2c1CCCC2)N1CCN(Cc2ccc3c(c2)OCO3)CC1 | not met |
| O=C(CCC1CCCCC1)Nc1cccc(-c2nnc(-c3ccco3)o2)c1 | met |
| COc1ccc(-c2onc(C(F)(F)F)c2-c2ccc(Cl)cc2)c(O)c1 | not met |
| CS(=O)(=O)N1CCC(CCn2nc(Cc3cccc4ccccc34)c3c(N)ncnc32)CC1 | met |
| O=C(Nc1nnc(-c2ccc(Cl)cc2)o1)c1cccc(C(F)(F)F)c1 | not met |
| O=C(NCc1nnc2n1CCCCC2)c1ccc(-c2ccc(F)cc2)o1 | not met |

---

Test system: Plasmodium falciparum NF54-HGL (transmission to Anopheles stephensi)
TEST PROTOCOL: percentage of barcode signal found in uninfected mosquitoes (transmission-blocking activity); higher = stronger blocking of transmission to mosquito, active = 80 or more
RUN CONDITIONS: 20 µM; gametocyte preincubation time 24 h; readout time post-feed 8 days
Classify by measured percentage of barcode signal found in uninfected mosquitoes: Met if it is equal to or exceeds 30%, Not met if it is smaller.

| STRUCTURE STRING | SYSTEM NAME | DISCRETE LABEL |
| --- | --- | --- |
| OCc1ccc(-c2cncc(Nc3cccc(Cl)c3)c2)cc1 | Plasmodium falciparum NF54-HGL (transmission to Anopheles stephensi) | Not met |
| CC(=O)N(CCN(C(=O)c1ccc(F)cc1)c1ccccc1)c1ccccc1 | Plasmodium falciparum NF54-HGL (transmission to Anopheles stephensi) | Not met |
| Cc1cc(Cl)c(S(=O)(=O)N2CCCC2)cc1OCC(=O)NC1CCCCC1 | Plasmodium falciparum NF54-HGL (transmission to Anopheles stephensi) | Not met |
| Nc1ncnc2c1c(-c1cnc3ccccc3c1)nn2CC1CCNCC1 | Plasmodium falciparum NF54-HGL (transmission to Anopheles stephensi) | Not met |
| CCCc1ccc(S(=O)(=O)Nc2ccc(CN3CCN(CC4CC4)CC3)cc2)cc1 | Plasmodium falciparum NF54-HGL (transmission to Anopheles stephensi) | Not met |
| CCCCS(=O)(=O)Nc1ccc2cnn(C)c2c1 | Plasmodium falciparum NF54-HGL (transmission to Anopheles stephensi) | Not met |
| CCOc1ccc(-c2nc(CNCCc3ccc(F)cc3)cs2)cc1 | Plasmodium falciparum NF54-HGL (transmission to Anopheles stephensi) | Met |
| COc1cccc(CC(=O)N2CCC(n3c(C)nc4ccc(F)cc43)CC2)c1 | Plasmodium falciparum NF54-HGL (transmission to Anopheles stephensi) | Met |
| COc1ccc(-c2cncc3ccc(C(=O)NCCCn4ccnc4)nc23)cc1 | Plasmodium falciparum NF54-HGL (transmission to Anopheles stephensi) | Met |
| CC(C)(C)c1ccc(N[C@@H]2CCCC[C@H]2NC(=O)c2ccco2)cc1 | Plasmodium falciparum NF54-HGL (transmission to Anopheles stephensi) | Met |
| CCc1nc2ccc(Cl)cn2c1C(=O)NCc1ccc(N2CCC(c3ccc(OC(F)(F)F)cc3)CC2)cc1 | Plasmodium falciparum NF54-HGL (transmission to Anopheles stephensi) | Met |
